Listing of entries alongside the reported melting point.

Would you please look over these solved cases?
INSERT INTO measurements (molecule, measurement) VALUES
  ('CNC(=O)CC(C)(C)c1ccc(C(=O)Nc2cn3cc(Cl)ccc3n2)cc1 [Example 128]', '228 to 230 °C'),
  ('O=C(Nc1cn2cc(-n3ccnc3)ccc2n1)c1ccc(-c2ncc[nH]2)cc1 [Example 88]', '276 to 279 °C (dec.)'),
  ('CC(C)(C)c1ccc(C(=O)Nc2cn3nc(-n4cnc(CC#N)c4)ccc3n2)cc1 [Example 142]', '314 to 316 °C (dec.)');

Look up melting point: CC(=O)NCC(C)(C)c1ccc(C(=O)Nc2cn3cc(-n4ccnc4)ccc3n2)cc1 [Example 135] 242 to 244 °C

====

measurement kind: melting point

Below: 3 compounds and their reported melting point.
INSERT INTO results (compound, measurement) VALUES
  ('CC(C)(C#N)c1ccc(C(=O)Nc2cn3cc(-n4ccnc4)ccc3n2)cc1', '241 to 244 °C'),
  ('CN(C)c1ccc2nc(NC(=O)c3ccc(C(C)(C)C)cc3)cn2n1.Cl', '259 to 260 °C'),
  ('CC(C)(C)c1ccc(C(=O)Nc2cn3cc(-c4cnc[nH]4)ccc3n2)cc1', '297 to 298 °C');

Fill in: melting point of CC(C)(C)c1ccc(C(=O)Nc2cn3cc(-n4cccc4)ccc3n2)cc1 is ___ 274 to 275 °C

Fill blank: measured melting point of the compound Cn1cc(-c2ccc3nc(NC(=O)c4ccc(C(C)(C)C)nc4)cn3n2)cn1 is ____. 251 to 252 °C

====

measurement kind: melting point

# example entries with known answers
INSERT INTO measurements (molecule, measurement_kind, measurement) VALUES
  ('CC(C)(C(=O)O)c1ccc(C(=O)Nc2cn3cc(-c4ccsc4)ccc3n2)cc1', 'melting point', '304 to 306 °C'),
  ('CC(C)(CCC#N)c1ccc(C(=O)Nc2cn3cc(-n4ccnc4)ccc3n2)cc1', 'melting point', '233 to 234 °C'),
  ('CC(C)(CO)c1ccc(C(=O)Nc2cn3cc(Cl)ccc3n2)cc1', 'melting point', '240 to 242 °C'),
  ('O=C(Nc1cn2cc(Cl)ccc2n1)c1ccc(C2(C(=O)O)CCCCC2)cc1', 'melting point', '288 °C'),
  ('CC(C)(c1ccc(C(=O)Nc2cn3cc(Cl)ccc3n2)cc1)c1noc(=O)[nH]1', 'melting point', '310 to 312 °C');

Fill blank: measured melting point of the molecule O=C(Nc1cn2cc(Cl)ccc2n1)c1ccc(-n2cccn2)cc1 is ____. 287 to 289 °C

For the molecule CCCNc1ccc2nc(NC(=O)c3ccc(C(C)(C)C)cc3)cn2n1 , what melting point is on record? 243 to 244 °C

Requested field: melting point. Item: CC(C)(C)c1ccc(C(=O)Nc2cn3c(CO)cccc3n2)cc1 229 to 230 °C

Tell me the measured melting point of CC(C)(C(=O)NCC(O)CO)c1ccc(C(=O)Nc2cn3cc(Cl)ccc3n2)cc1 (stereo not shown) , please. 198 to 199 °C

Recorded melting point for CC(C)(c1ccc(C(=O)Nc2cn3cc(Cl)ccc3n2)cc1)c1nnn[nH]1 , please? 266 to 267 °C

Given CC(C)(C)c1ccc(C(=O)Nc2cn3cc(-c4ccncc4)ccc3n2)cc1 , state its recorded melting point. 293 to 294 °C

For the molecule shown here, CC(C)(C)c1ccc(C(=O)Nc2cn3nc(N4CCCC4)ccc3n2)cc1.Cl (hydrate or solvate) , give the reported melting point. 257 to 259 °C

Form field: reported melting point of CCCNCC(C)(C)c1ccc(C(=O)Nc2cn3cc(-n4ccnc4)ccc3n2)cc1 162 to 164 °C

Return reported melting point; argument: CCc1nc(C)cn1-c1ccc2nc(NC(=O)c3ccc(C(C)(C)C)cc3)cn2n1 220 to 221 °C

For CCC(=O)NCC(C)(C)c1ccc(C(=O)Nc2cn3cc(Cl)ccc3n2)cc1 , what is its reported melting point? 225 to 227 °C

====

# melting point listing for each entry below

Observe how each entry below is paired with its result.
INSERT INTO measurements (compound, measurement_kind, measurement) VALUES
  ('CC(C)(C(=O)NO)c1ccc(C(=O)Nc2cn3cc(Cl)ccc3n2)cc1', 'melting point', '212 to 213 °C'),
  ('CC(C)(CNC(=O)c1c[nH]cn1)c1ccc(C(=O)Nc2cn3cc(C(F)(F)F)ccc3n2)cc1', 'melting point', '174 to 176 °C'),
  ('CC(C)(C(=O)O)c1ccc(C(=O)Nc2cn3cc(-c4cn[nH]c4)ccc3n2)cc1', 'melting point', '306 to 307 °C');

Tell me the measured melting point of Cc1ccc2nc(NC(=O)c3ccc(C(C)(C)CCC#N)cc3)cn2c1 , please. 194 to 195 °C

====

Reported values of melting point for individual entries

Take a look at these entries with their results.
INSERT INTO assay_data (mol, measurement_kind, measurement) VALUES
  ('CC(C)(C)c1ccc(C(=O)Nc2cn3nc(NCCc4cccnc4)ccc3n2)cc1', 'melting point', '231 °C'),
  ('CC(=O)c1ccc2nc(NC(=O)c3ccc(C(C)(C)C)cc3)cn2n1', 'melting point', '237 to 238 °C'),
  ('CC(C)(C)c1ccc(C(=O)Nc2cn3nc(N)ccc3n2)cc1.Cl', 'melting point', '312 to 313 °C'),
  ('CS(=O)(=O)Nc1ccc(C(=O)Nc2cn3cc(Cl)ccc3n2)cc1', 'melting point', '293 to 295 °C');

We next turn to a different compound, shown below.
What does the record list as melting point for CC(C)c1ccc(C(=O)Nc2cn3cc(-n4ccnc4)ccc3n2)cc1 ? 291 to 293 °C

====

measurement kind: melting point

INSERT INTO results (compound, measurement_kind, measurement) VALUES
  ('O=C(Nc1cn2cc(Cl)ccc2n1)c1ccc(C2(C(=O)O)CCCC2)cc1 [Example 191]', 'melting point', '313 °C (dec.)'),
  ('CC(C)(C)c1ccc(C(=O)Nc2cn3nc(-n4cnc(Cl)c4Cl)ccc3n2)cc1 [Example 146]', 'melting point', '281 to 282 °C'),
  ('CC(C)(C)c1ccc(C(=O)Nc2cn3nc(NC4CCCC4)ccc3n2)cc1 [Example 165]', 'melting point', '272 to 273 °C');

May I ask what melting point has been recorded for CC(C)(CN)c1ccc(C(=O)Nc2cn3cc(Cl)ccc3n2)cc1 [Example 94] ? 245 to 247 °C

Name the recorded melting point for Cc1c(NC(=O)c2ccc(C(C)(C)C)cc2)nc2ccc(-n3ccnc3)nn12 [Example 56] . 302 to 303 °C

Item CC(C)(CCO)c1ccc(C(=O)Nc2cn3cc(Cl)ccc3n2)cc1 [Example 467] has what recorded melting point? 182 to 184 °C

// query melting point value for entry Cc1cccc2nc(NC(=O)c3ccc(C(C)(C)C)cc3)cn12.Cl 204 to 205 °C

// returns reported melting point for input CC(C)(CCC(=O)O)c1ccc(C(=O)Nc2cn3cc(Cl)ccc3n2)cc1 [Example 118] 309 to 311 °C (dec.)

====

Let's look at some compounds and their measured melting point.
Structures can show the parent of a compound that is named as a salt.

Example compounds with recorded melting point:
INSERT INTO measurements (compound, measurement) VALUES
  ('CN(C)c1ccc(C(=O)Nc2cn3cc(-n4ccnc4)ccc3n2)cc1', '247 to 248 °C'),
  ('Cc1ccc2nc(NC(=O)c3ccc(C(C)(C)C(=O)O)cc3)cn2c1', '275 to 277 °C'),
  ('Cc1c(NC(=O)c2ccc(C(C)(C)C)cc2)nc2ccc(Cl)nn12', '269 to 270 °C'),
  ('Cc1cccc2nc(NC(=O)c3ccc(C(C)(C)C(=O)O)cc3)cn12', '282 to 283 °C'),
  ('CC(C)(CCc1nnn[nH]1)c1ccc(C(=O)Nc2cn3cc(Cl)ccc3n2)cc1', '250 to 251 °C'),
  ('CC(C)(CNC(=O)C(O)CO)c1ccc(C(=O)Nc2cn3cc(Cl)ccc3n2)cc1 (centres unmarked)', '228 to 229 °C'),
  ('CC(C)(C#N)c1ccc(C(=O)Nc2cn3cc(Cl)ccc3n2)cc1', '248 to 250 °C'),
  ('CC(C)(C)c1ccc(C(=O)Nc2cn3c4c(ccc3n2)OCC4)cn1 (as salt: hydrochloride) [Example 18, dihydrochloride]', '199 to 200 °C'),
  ('CC(C)(N)c1ccc(C(=O)Nc2cn3cc(Cl)ccc3n2)cc1', '235 to 237 °C'),
  ('CC(C)(C(=O)O)c1ccc(C(=O)Nc2cn3cc(-c4ccoc4)ccc3n2)cc1', '307 to 309 °C');

Looking for the measured melting point of CC(C)(C)c1ccc(C(=O)Nc2cn3nc(NCCc4ccncc4)ccc3n2)cc1 , can you help? 279 °C

Query (compound): COc1ccc(-c2ccc3nc(NC(=O)c4ccc(C(C)(C)C)cc4)cn3c2)cn1 ; field requested: melting point 245 to 247 °C

// query melting point value for entry CC(=O)NCC(C)(C)c1ccc(C(=O)Nc2cn3cc(Cl)ccc3n2)cc1 220 to 222 °C

Could you share which melting point value was measured for Cc1ccc2nc(NC(=O)c3ccc(C(C)(C)CCc4noc(=O)[nH]4)cc3)cn2c1 ? 267 to 268 °C

Look up melting point: CC(C)(CO)c1ccc(C(=O)Nc2cn3cc(-c4cn[nH]c4)ccc3n2)cc1 293 to 296 °C

Reported melting point for CC(C)(C)c1ccc(C(=O)Nc2cn3cc(-c4cn[nH]c4)ccc3n2)cn1 : what is it? 238 to 240 °C

Name the reported melting point value associated with the compound Cn1cc(-c2ccc3nc(NC(=O)c4ccc(C(C)(C)CO)cc4)cn3c2)cn1 275 to 277 °C
